Test system: primary human T-cells
Assay: Proliferation assay after 5 days (CellTiter-Glo, CD3 stimulation; PBS counter screen)
Format: cell-based
Conditions: Homo sapiens, T-cell, 120 h, primary human T-cells, CD3 stimulation, CellTiter-Glo after 5 days; EC50 of fitted sigmoidal curve; read-out: Tcell Proliferation CD3 EC50
pEC50: −log10 of the molar value.
Output Criterion met for pEC50 not less than 6; output Criterion not met otherwise.

Worked cases, answers included:
[
  {
    "molecule": "CN(C)c1cc2c(cc1-c1nnc(C(C)(C)C)o1)N(Cc1ccc(Cl)cc1)C(=O)[C@@H](N)CS2(=O)=O [Example 274]",
    "assignedClass": "Criterion not met"
  },
  {
    "molecule": "CC1(C#N)CCN(c2nnc(-c3cc4c(cc3F)S(=O)(=O)C[C@H](N)C(=O)N4Cc3ccc(Cl)cc3)o2)CC1 [Example 468]",
    "assignedClass": "Criterion not met"
  },
  {
    "molecule": "COCCN1CC(c2nnc(-c3cc4c(cc3F)S(=O)(=O)C[C@H](N)C(=O)N4Cc3ccc(Cl)cc3)o2)CC(F)(F)C1 (stereo partly shown) [Example 151]",
    "assignedClass": "Criterion met"
  },
  {
    "molecule": "N[C@H]1CS(=O)(=O)c2cc(F)c(-c3nnc(C4CCCC(F)(F)C4)o3)cc2N(Cc2ccc(OC(F)(F)F)cc2)C1=O (stereo partly shown) [Example 55]",
    "assignedClass": "Criterion met"
  },
  {
    "molecule": "N[C@H]1CS(=O)(=O)c2ccc(-c3nnc(C(F)(F)C(F)(F)F)o3)cc2N(Cc2ccc(OC(F)(F)F)cc2)C1=O [Example 415]",
    "assignedClass": "Criterion not met"
  }
]

We now examine a further molecule.
Would you say CC(C)(C)c1nnc(-c2cc3c(cc2F)S(=O)(=O)C[C@H](N)C(=O)N3Cc2ccc(Cl)c(F)c2)o1 [Example 245] shows pEC50 at minimum 6?
Criterion met
